Measured IC50 of individual entries
biological target: IRAK4 (Homo sapiens (Human), UniProt Q9NWZ3); assay: IRAK-4 AlphaScreen biochemical kinase assay; conditions: 1 nM IRAK4, 1 mM ATP, 3.5 h at RT
Sequence (Q9NWZ3 whole entry, species assumed): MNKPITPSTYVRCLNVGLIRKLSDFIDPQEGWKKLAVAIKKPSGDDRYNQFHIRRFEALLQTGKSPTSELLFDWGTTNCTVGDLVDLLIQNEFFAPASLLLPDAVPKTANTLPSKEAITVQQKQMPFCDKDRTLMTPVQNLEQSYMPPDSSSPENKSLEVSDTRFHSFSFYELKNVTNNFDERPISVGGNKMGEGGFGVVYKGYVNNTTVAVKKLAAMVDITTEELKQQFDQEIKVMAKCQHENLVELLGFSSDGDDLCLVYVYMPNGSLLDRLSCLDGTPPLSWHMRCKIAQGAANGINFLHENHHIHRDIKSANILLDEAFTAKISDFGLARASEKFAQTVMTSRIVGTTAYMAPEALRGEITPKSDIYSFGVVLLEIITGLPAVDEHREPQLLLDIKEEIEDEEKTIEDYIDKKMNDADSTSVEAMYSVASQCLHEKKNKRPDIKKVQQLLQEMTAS

INPUT: # input molecule: NCCNC(=O)c1cccc(-n2ncc3ccc(-c4cncc(N)c4)cc32)n1 ; wanted: its IC50
OUTPUT: < 100 nM

INPUT: Please do the same for CCc1cc(-c2cccc(C(C)N)n2)cc2c1cnn2-c1cccc(C)n1 (centres unmarked) as well.
OUTPUT: 100 to 1000 nM

INPUT: Please do the same for C=CC[C@H](N)c1cccc(-c2ccc3cnn(-c4cccc(CO)n4)c3c2)n1 as well.
OUTPUT: < 100 nM

INPUT: Please do the same for COC(=O)c1cc(-c2cccc(C(C)N)n2)cc2c1cnn2-c1cccc(C)n1 (centres unmarked) as well.
OUTPUT: < 100 nM

INPUT: Please do the same for C[C@H](N)c1cccc(-c2cc(-c3ncco3)c3cnn(-c4cccc(CO)n4)c3c2)n1 as well.
OUTPUT: < 100 nM

====

molecular target: IRAK4 (Homo sapiens (Human), UniProt Q9NWZ3)
pIC50: −log10 of the molar value.
Measured pIC50 of individual entries

INPUT: # input molecule: Cc1cccc(-n2ncc3ccc(-c4cn(C)c(CN)n4)cc32)n1 [Example 300] ; wanted: its pIC50
OUTPUT: 5.00 to 6.00

INPUT: Please do the same for Cc1nc(-c2cc(-c3cccc([C@H](C)N)n3)cc3c2cnn3-c2cccc(CO)n2)cs1 [Example 368] as well.
OUTPUT: > 7.00

INPUT: Please do the same for CS(=O)(=O)CCNC(=O)c1cccc(-n2ncc3ccc(-c4cncc(N)c4)cc32)n1 [Example 74] as well.
OUTPUT: 5.00 to 6.00

INPUT: Please do the same for CCC[C@@H](N)c1ccnc(-c2cc(OCC)c3cnn(-c4cccc(CO)n4)c3c2)n1 [Example 584] as well.
OUTPUT: > 7.00

INPUT: Please do the same for COc1cc(-c2cccc([C@@H](N)CCCO)n2)cc2c1cnn2-c1cccc(CO)n1 [Example 409] as well.
OUTPUT: > 7.00

INPUT: Please do the same for Cc1cccc(-n2ncc3ccc(-c4cccc5c4CCNC5)cc32)n1 [Example 15] as well.
OUTPUT: 5.00 to 6.00

INPUT: Please do the same for N#CC[C@@H](N)c1cccc(-c2ccc3cnn(-c4cccc(CO)n4)c3c2)n1 [Example 581] as well.
OUTPUT: 6.00 to 7.00

INPUT: Please do the same for Nc1cc(-c2ccc3cnn(-c4cccc(C(F)(F)F)n4)c3c2)cc(C(=O)O)n1 [Example 213] as well.
OUTPUT: 5.00 to 6.00

====

Measured pIC50 of individual entries
biological target: IRAK4 (Homo sapiens (Human))
pIC50: −log10 of the molar value.

compound: CCC[C@@H](N)c1ccnc(-c2ccc3cnn(-c4cccc(CO)n4)c3c2)n1
system: IRAK4 (Homo sapiens (Human))
pIC50: > 7.00
//
compound: CC(C)C[C@H](N)c1cccc(-c2ccc3cnn(-c4cccc(CO)n4)c3c2)n1
system: IRAK4 (Homo sapiens (Human))
pIC50: > 7.00
//
compound: COCCOc1cc(-c2cccc(C3(N)COC3)n2)cc2c1cnn2-c1cccc(CO)n1
system: IRAK4 (Homo sapiens (Human))
pIC50: 6.00 to 7.00
//
compound: CC(=O)C[C@H](N)c1cccc(-c2ccc3cnn(-c4cccc(CO)n4)c3c2)n1
system: IRAK4 (Homo sapiens (Human))
pIC50: > 7.00
//
compound: C/C(=N\O)c1cccc(-c2cc(N(C)C)c3cnn(-c4cccc(C)n4)c3c2)n1
system: IRAK4 (Homo sapiens (Human))
pIC50: 6.00 to 7.00
//
compound: Cc1cc(-c2ccc3cnn(-c4cccc(C)n4)c3c2)nc(C(C)N)c1 (centres unmarked)
system: IRAK4 (Homo sapiens (Human))
pIC50: > 7.00
//
compound: CCC(N)c1cccc(-c2ccc3cnn(-c4cccc(C(N)=O)n4)c3c2)n1 (centres unmarked)
system: IRAK4 (Homo sapiens (Human))
pIC50: > 7.00

INPUT: Query pIC50 on IRAK4 (Homo sapiens (Human)) for CCc1cccc(-n2ncc3ccc(-c4cccc(/C(C)=N/O)n4)cc32)n1
OUTPUT: 5.00 to 6.00
